Origin of the recorded values: patent US12692253B2

Kindly state IC50 for each of the entries shown.
# TESTED SYSTEM: Rabbit Reticulocyte Lysate (eukaryotic protein synthesis)
# METHOD DESCRIPTION: Rabbit reticulocyte lysate luciferase assay (inhibition of eukaryotic protein synthesis)
# Type: biochemical
# CONDITION DESCRIPTION: % inhibition @ 1 μM, read-out: Rabbit reticulocyte IC50 (μM/% inhib.)

I have this compound here, CC(C)(N)C(=O)N1CCN(C(=O)Nc2ccn(-c3ccc(CNC45CCC(N)(CC4)CC5)cc3)c(=O)n2)CC1 , and I need its recorded IC50.
≥ 1 µM

Now consider CCN(Cc1ccc(-n2ccc(NC(=O)N3CCN(C(=O)C(C)(C)N)CC3)nc2=O)cc1)C12CCC(N)(CC1)CC2 and answer again.
≥ 1 µM

Now consider CC(Cc1ccc(-n2ccc(NC(=O)N3CCN(C(=O)[C@H]4C[C@H](N)C4)CC3)nc2=O)cc1)N1C[C@@H]2[C@@H](CN)[C@@H]2C1 (stereo partly drawn) and answer again.
≥ 1 µM

###

Kindly state MIC for each of the entries shown.
# System: E. coli (Ec)
# METHOD DESCRIPTION: Broth microdilution minimum inhibitory concentration (MIC), CLSI
# Type: cell-based
# CONDITION DESCRIPTION: Escherichia coli, growth medium with sodium bicarbonate, read-out: E. coli + bicarb MIC

I have this molecule here, CC(C)(N)C(=O)N1CCN(C(=O)Nc2ccn(-c3ccc(CNC45CC(CN)(C4)C5)cc3)c(=O)n2)CC1 [Compound 173] , and I need its recorded MIC.
< 8 µg/mL

Now consider CC(=O)NC[C@@H]1[C@H]2CN(C(C)Cc3ccc(-n4ccc(NC(=O)N5CCN(C(=O)C(C)(C)N)CC5)nc4=O)cc3)C[C@@H]12 (stereo partly drawn) [Compound 212] and answer again.
> 32 µg/mL

Now consider CC(Cc1ccc(-n2ccc(NC(=O)N3CCN(C(=O)C(C)(C)N)CC3)nc2=O)cc1)N1CCC2(CC(N)C2)C1 (stereo not drawn) [Compound 225] and answer again.
< 8 µg/mL

###

# TESTED SYSTEM: Rabbit Reticulocyte Lysate (eukaryotic protein synthesis)
# METHOD DESCRIPTION: Rabbit reticulocyte lysate luciferase assay (inhibition of eukaryotic protein synthesis)
# Format: biochemical
# CONDITION DESCRIPTION: % inhibition @ 1 μM, read-out: Rabbit reticulocyte IC50 (μM/% inhib.)
VALUE KIND: IC50

I have this molecule here, CCN(Cc1ccc(-n2ccc(NC(=O)N3CCN(C(=O)C(C)(C)N)CC3)nc2=O)cc1)C12CCC(N)(CC1)C2 , and I need its recorded IC50.
≥ 1 µM

Now consider CC(Cc1ccc(-n2ccc(NC(=O)N3CCN(C(=O)C(C)(C)N)CC3)nc2=O)cc1)N(C)C1CC2(CC(N)C2)C1 (stereo not drawn) and answer again.
≥ 1 µM

Now consider CC(Cc1ccc(-n2ccc(NC(=O)N3CCN(C(=O)C(C)(C)N)CC3)nc2=O)cc1)N(C)C12CC(N)(C1)C2 (stereo not drawn) and answer again.
≥ 1 µM

Now consider CCC(Cc1ccc(-n2ccc(NC(=O)N3CCN(C(=O)C(C)(C)N)CC3)nc2=O)cc1)N1CC2CCC(N)CC2C1 (stereo not drawn) [Compound 244] and answer again.
≥ 1 µM

Now consider CC(Cc1ccc(-n2ccc(NC(=O)N3CCN(C(=O)C[C@H](C)N)CC3)nc2=O)cc1)N1C[C@@H]2[C@@H](CN)[C@@H]2C1 (stereo partly drawn) and answer again.
≥ 1 µM

Now consider CC(Cc1ccc(-n2ccc(NC(=O)N3CCN(C(=O)[C@H]4C[C@@H](N)C4)CC3)nc2=O)cc1)N1C[C@@H]2[C@@H](CN)[C@@H]2C1 (stereo partly drawn) and answer again.
≥ 1 µM

Now consider NCC1CC2(CCN(C(=O)Nc3ccn(-c4ccc(CN5C[C@@H]6[C@@H](N)[C@@H]6C5)cc4)c(=O)n3)CC2)C1 and answer again.
≥ 1 µM

Now consider CC(Cc1ccc(-n2ccc(NC(=O)N3CCN(C(=O)C(C)(C)N)CC3)nc2=O)cc1C(F)(F)F)N1C[C@@H]2[C@@H](CN)[C@@H]2C1 (stereo partly drawn) and answer again.
≥ 1 µM

Now consider CN(Cc1ccc(-n2ccc(NC(=O)N3CCN(C(=O)C(C)(C)N)CC3)nc2=O)cc1)C12CC(CN)(C1)C2 and answer again.
≥ 1 µM
